# subject_of_test: human TRPV4 (hTRPV4/CHO cells) (Homo sapiens)
# Construct: expressed in transfected cells; host or cells: CHO-K1
# procedure_text: Test Example 1: TRPV4 inhibitory activity (IC50 value), 4α-PDD stimulation, Fluo4 calcium fluorescence (FLIPR TETRA)
# Type: cell-based
# test_settings: Test Example 1, 4α-PDD stimulation, read-out: Test 1 IC50
Reported IC50 values for a set of compounds

These solved cases illustrate the format of a correct answer.
Cc1nc(C)c(-c2csc(NC(=O)Cn3cc(CNC(=O)OC(C)(C)C)nn3)n2)s1 :: 1000 to 8000 nM
CC(=O)NCc1nc(CO)sc1-c1csc(NC(=O)C2CN(c3ccc(C(F)(F)F)cc3)C2)n1 :: < 100 nM
Cc1nc(C)c(-c2csc(NC(=O)[C@H]3C[C@@H](c4ccccc4)CN3)n2)s1 :: 1000 to 8000 nM
Cc1nc(C)c(-c2csc(NC(=O)C3CN(S(=O)(=O)c4ccc(C(F)(F)F)cc4)C3)n2)s1 :: < 100 nM
Cc1nc(CO)sc1-c1csc(Nc2ccccn2)n1 :: < 100 nM
Cc1nc(CO)sc1-c1csc(NC(=O)C2Oc3ccc(Cl)cc3O2)n1 (racemic) :: < 100 nM
Cc1nc(CO)sc1-c1csc(NC(=O)C2CN(c3ccc(C(F)(F)F)cn3)C2)n1 :: < 100 nM
Cc1ccc(-c2csc(NC(=O)C3CC(F)C3)n2)s1 (stereo not drawn) :: 100 to 1000 nM

Please look at the following compound next.
Any idea what IC50 was measured for Cc1nc(CO)sc1-c1csc(NC(=O)C2CN(C(=O)OCC(F)(F)F)C2)n1 ?
100 to 1000 nM

###

# subject_of_test: human TRPV4 (hTRPV4/CHO cells) (Homo sapiens, UniProt Q9HBA0)
# Construct: expressed in transfected cells; host or cells: CHO-K1
# Sequence (Q9HBA0 whole entry): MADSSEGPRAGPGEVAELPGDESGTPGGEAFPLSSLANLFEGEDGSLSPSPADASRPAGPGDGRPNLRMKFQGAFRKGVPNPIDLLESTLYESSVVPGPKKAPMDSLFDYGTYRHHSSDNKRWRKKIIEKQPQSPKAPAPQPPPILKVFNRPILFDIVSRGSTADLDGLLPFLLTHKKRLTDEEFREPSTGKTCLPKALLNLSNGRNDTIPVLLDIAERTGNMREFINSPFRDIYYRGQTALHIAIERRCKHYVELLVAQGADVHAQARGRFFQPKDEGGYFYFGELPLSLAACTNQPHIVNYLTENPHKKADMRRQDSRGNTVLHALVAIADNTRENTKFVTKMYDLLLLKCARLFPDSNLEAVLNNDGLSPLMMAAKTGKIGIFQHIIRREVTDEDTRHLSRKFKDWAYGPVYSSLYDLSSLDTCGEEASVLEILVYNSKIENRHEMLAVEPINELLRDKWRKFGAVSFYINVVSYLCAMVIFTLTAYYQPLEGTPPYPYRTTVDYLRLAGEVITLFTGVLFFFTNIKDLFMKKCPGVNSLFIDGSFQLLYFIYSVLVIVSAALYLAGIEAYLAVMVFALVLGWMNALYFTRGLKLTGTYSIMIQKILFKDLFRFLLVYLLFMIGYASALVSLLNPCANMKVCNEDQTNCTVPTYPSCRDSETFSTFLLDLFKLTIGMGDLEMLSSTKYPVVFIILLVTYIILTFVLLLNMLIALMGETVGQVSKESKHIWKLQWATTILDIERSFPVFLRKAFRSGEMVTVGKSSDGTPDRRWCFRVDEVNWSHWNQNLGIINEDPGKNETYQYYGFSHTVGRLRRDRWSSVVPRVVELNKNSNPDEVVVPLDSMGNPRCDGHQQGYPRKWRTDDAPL
# procedure_text: Test Example 1: TRPV4 inhibitory activity (IC50 value), 4α-PDD stimulation, Fluo4 calcium fluorescence (FLIPR TETRA)
# Assay type: cell-based
# test_settings: Test Example 1, 4α-PDD stimulation, read-out: Test 1 IC50
pIC50: −log10 of the molar value.
pIC50 values, listed per item

As a guide, the following entries are already answered.
Cc1nc(C)c(-c2csc(NC(=O)Cc3cc(OCC4CC4)cc(C(=O)N[C@H](c4ccccc4)C(F)(F)F)c3)n2)s1 :: > 7.00
Cc1nc(C)c(-c2csc(Nc3cnccn3)n2)s1 :: > 7.00
Cc1nc(C)c(-c2csc(NC(=O)C3CCCC3)n2)s1 :: 6.00 to 7.00
Cc1nc(C)c(-c2csc(NC(=O)C3(CCCO)CN(c4ccc(C(F)(F)F)cc4)C3)n2)s1 (racemic) :: 6.00 to 7.00
Cc1nc(CO)sc1-c1csc(NC(=O)C2CC(c3ccccc3)C2)n1 (stereo not drawn) :: > 7.00

Now for a further compound.
GET /values?readout=pIC50&item= Cc1nc(C(O)CO)sc1-c1csc(NC(=O)Cc2c(F)cccc2F)n1 (stereo not drawn)
5.10 to 6.00

###

# subject_of_test: human TRPV4 (hTRPV4/CHO cells) (Homo sapiens, UniProt Q9HBA0)
# Construct: expressed in transfected cells; host or cells: CHO-K1
# procedure_text: Test Example 1: TRPV4 inhibitory activity (IC50 value), 4α-PDD stimulation, Fluo4 calcium fluorescence (FLIPR TETRA)
# Format: cell-based
# test_settings: Test Example 1, 4α-PDD stimulation, read-out: Test 1 IC50
pIC50: −log10 of the molar value.
measurement_type: pIC50

Cc1nc(CO)sc1-c1csc(NC(=O)[C@H]2C[C@H](OCC(F)(F)F)C2)n1 :: > 7.00
Cc1[nH]c(=O)sc1-c1csc(NC(=O)Cc2c(F)cccc2F)n1 :: 6.00 to 7.00

Proceed to the following item.
Using the record for Cc1nc(C)c(-c2csc(NC(=O)Cc3cccc(OC(F)(F)F)c3)n2)o1 , report its pIC50.
6.00 to 7.00

###

Entries and their measured pIC50 follow.
# subject_of_test: human TRPV4 (hTRPV4/CHO cells) (Homo sapiens, UniProt Q9HBA0)
# Construct: expressed in transfected cells; host or cells: CHO-K1
# procedure_text: Test Example 1: TRPV4 inhibitory activity (IC50 value), 4α-PDD stimulation, Fluo4 calcium fluorescence (FLIPR TETRA)
# Format: cell-based
# test_settings: Test Example 1, 4α-PDD stimulation, read-out: Test 1 IC50
pIC50: −log10 of the molar value.

Cc1nc(C)c(-c2csc(NC(=O)Cc3cccc(S(=O)(=O)N[C@H](c4ccccc4)C(F)(F)F)c3)n2)s1 :: > 7.00
Cc1nc(C)c(-c2csc(NC(=O)C3Cc4ccccc4C3)n2)s1 [Compound I-88] :: 5.10 to 6.00
Cc1nc(CO)sc1-c1csc(NC(=O)[C@H]2C[C@@H](c3ccc(C(F)(F)F)cc3)C2)n1 :: > 7.00
Cc1nc(CO)sc1-c1csc(NC(=O)C2CCN(Cc3ccccc3)C2)n1 (stereo not drawn) :: 5.10 to 6.00
CCOC(=O)c1nc(C)c(-c2csc(NC(=O)C3Oc4cc(Cl)c(Cl)cc4O3)n2)s1 :: 6.00 to 7.00

Form entry - test system: human TRPV4 (hTRPV4/CHO cells) (Homo sapiens, UniProt Q9HBA0); read-out: pIC50; compound: Cc1nc(CO)sc1-c1csc(NC(=O)C2CC(OCc3ccncc3)C2)n1 (stereo not drawn)
5.10 to 6.00

###

# subject_of_test: human TRPV4 (hTRPV4/CHO cells) (Homo sapiens)
# Construct: expressed in transfected cells; host or cells: CHO-K1
# procedure_text: Test Example 1: TRPV4 inhibitory activity (IC50 value), 4α-PDD stimulation, Fluo4 calcium fluorescence (FLIPR TETRA)
# Format: cell-based
# test_settings: Test Example 1, 4α-PDD stimulation, read-out: Test 1 IC50
measurement_type: IC50

# count of solved cases: 2
CC(=O)Nc1nc(-c2sc(C)nc2C)cs1 :: 1 to 8 µM
COc1cc(CC(=O)Nc2nc(-c3sc(C)nc3C)cs2)cc(C(=O)NC(c2ccccc2)C(F)(F)F)c1 (stereo not drawn) :: < 0.1 µM

// next entry
Find the measured IC50: item Cc1nc(CO)sc1-c1csc(NC(=O)C2CN(c3cccnc3Br)C2)n1 , target or system human TRPV4 (hTRPV4/CHO cells) (Homo sapiens).
< 0.1 µM

###

Each record here notes measured IC50.
# subject_of_test: human TRPV4 (hTRPV4/CHO cells) (Homo sapiens)
# Construct: expressed in transfected cells; host or cells: CHO-K1
# procedure_text: Test Example 1: TRPV4 inhibitory activity (IC50 value), 4α-PDD stimulation, Fluo4 calcium fluorescence (FLIPR TETRA)
# Assay type: cell-based
# test_settings: Test Example 1, 4α-PDD stimulation, read-out: Test 1 IC50

Solved cases below.
Cc1nc(CS(=O)(=O)C(F)(F)F)c(-c2csc(NC(=O)Cc3ccc(S(=O)(=O)C(F)(F)F)cc3)n2)s1 :: 100 to 1000 nM
Cc1nc([C@@H](C)O)sc1-c1csc(NC(=O)Cc2ccc(S(=O)(=O)C(F)(F)F)cc2)n1 :: < 100 nM
COC(=O)N(C)Cc1nc(CO)sc1-c1csc(NC(=O)Cc2ccc(S(=O)(=O)C(F)(F)F)cc2)n1 :: < 100 nM
Cc1nc(C)c(-c2csc(NC(=O)C3CN(c4ccc(C(F)(F)F)cn4)C3)n2)s1 :: < 100 nM
Cc1nc(CO)sc1-c1csc(NC(=O)CC2Cc3ccccc3C2)n1 (racemic) :: 100 to 1000 nM

Tell me the measured IC50 of Cc1nc(C)c(-c2csc(NC(=O)C3(c4ccc(Cl)cc4)CC3)n2)s1 , please.
100 to 1000 nM

Queued: Cc1nc(C)c(-c2csc(NC(=O)Cc3cccc(C(=O)Nc4ccccc4F)n3)n2)s1
< 100 nM

Same thing, different compound: Cc1nc(C)c(-c2csc(NC(=O)CC3CN(c4ccc(C(F)(F)F)cc4)C3)n2)s1
< 100 nM

Try this compound too: Cc1nc(C)c(-c2csc(NC(=O)Cn3cc(Cl)cn3)n2)s1 [Compound I-116]
1000 to 8000 nM

Same again, this time with Cc1nc(CO)sc1-c1csc(NC(=O)CC2CCN(S(=O)(=O)CCC(F)(F)F)CC2)n1
1000 to 8000 nM

Field entry: Cc1nc(C)c(-c2csc(NC(=O)C3CN(c4cnc(C(F)(F)F)cn4)C3)n2)s1
< 100 nM

// query: Cc1nc(CO)sc1-c1csc(NC(=O)[C@@H]2C[C@@H](c3ccccc3)CN2C(=O)C(C)(C)F)n1
< 100 nM

Would you kindly repeat that for Cc1nc(OCCO)sc1-c1csc(NC(=O)Cc2ccc(S(=O)(=O)C(F)(F)F)cc2)n1 ?
100 to 1000 nM

Now try Cc1nc(CO)sc1-c1csc(NC(=O)C2CCN(CC(F)(F)F)C2)n1 (stereo not drawn) .
100 to 1000 nM

# repeat for NC(=O)OCc1nc(CO)sc1-c1csc(NC(=O)Cc2ccc(S(=O)(=O)C(F)(F)F)cc2)n1
< 100 nM
